Test system: SW480 colon carcinoma cells
Assay: Cell viability assay (CellTiter-Glo)
Format: cell-based, human
Details: Homo sapiens, SW480; read-out: percent inhibition at 10 μM
endpoint.name: inhibition at 10 µM (%)
Give your result in % as a bare value.

>  <compound>
O=C(Nc1cc2cc(-c3cnco3)ccc2cn1)C1CCN(CCC(F)(F)F)CC1

>  <measured.on>
SW480 colon carcinoma cells

>  <reading.unit>
%

>  <inhibition at 10 µM>
32

$$$$
>  <compound>
Cc1nnc(-c2ccc3cnc(NC(=O)CN4CCCOCC4)cc3c2)s1

>  <measured.on>
SW480 colon carcinoma cells

>  <reading.unit>
%

>  <inhibition at 10 µM>
31.3

$$$$
>  <compound>
Cc1nnc(-c2ccc3cnc(NC(=O)CN4C5CCC4COC5)cc3c2)s1

>  <measured.on>
SW480 colon carcinoma cells

>  <reading.unit>
%

>  <inhibition at 10 µM>
30.9

$$$$

Ask: Form field - read-out: inhibition at 10 µM; system: SW480 colon carcinoma cells; submitted item: Cn1cc(-c2ccc3cnc(NC(=O)C45CCN(CC4)CC5)cc3c2)cn1
Reply: 26.2

Ask: Form field - read-out: inhibition at 10 µM; system: SW480 colon carcinoma cells; submitted item: O=C(Nc1cc2cc(-c3cnc4n3CCNC4)ccc2cn1)[C@H]1CCCN1
Reply: 10.6

====

Test system: Wnt pathway (Sp5-Luc reporter, TCF/LEF binding sites) in SW480 colon carcinoma cells
Test: Screening assay for Wnt activity: Sp5-Luc reporter gene assay
Format: cell-based, human
Details: Homo sapiens; Sp5-Luc reporter, SW480 cells, 36 to 48 hours
The following compounds are shown together with reported pEC50 values.
Units for pEC50: none; it is -log10 of a concentration expressed in mol/L.

Solved cases (4 shown):
>  <compound>
CC(C(=O)Nc1cc2cc(-c3cnn(C)c3)ccc2cn1)N1CCCCC1 (stereo not shown)

>  <pEC50>
6.07

$$$$
>  <compound>
Cn1ncc(-c2ccc3cnc(NC(=O)C4CCC(F)(F)CC4)cc3c2)c1CN1CCCCC1

>  <pEC50>
5.95

$$$$
>  <compound>
Cn1cc(-c2ccc3cnc(NC(=O)[C@H]4CCCN4)cc3c2)cn1

>  <pEC50>
5.94

$$$$
>  <compound>
Cn1cc(-c2ccc3cnc(NC(=O)CC4CNCCO4)cc3c2)cn1 (stereo not shown)

>  <pEC50>
6.15

$$$$

Ask: Look at this compound and give its reported pEC50. COC(=O)CN1CCC(C(=O)Nc2cc3cc(-c4cnn(C)c4)ccc3cn2)CC1
Reply: 6.10

Ask: Look at this compound and give its reported pEC50. Cn1ncc(-c2ccc3cnc(NC(=O)C4CCOCC4)cc3c2)c1CN1CCCCC1
Reply: 6.11

Ask: Look at this compound and give its reported pEC50. CC(C)OCCN1CCC(C(=O)Nc2cc3cc(-c4cnn(C)c4)ccc3cn2)CC1
Reply: 5.96

====

System: Tau phosphorylation at Ser396 (pSer396)
Test: Tau phosphorylation assay (pSer396 ELISA / western blot) in SH-SY5Y cells;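 note: EC50 for reduction of Tau pSer396 in lysed cells, measured by colorimetric ELISA or chemiluminescent western blot, both using the same pSer396 antibody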
Format: cell-based, human
Conditions: Homo sapiens; SH-SY5Y cells, overnight (16-18 h) exposure; read-out: pSer396 Tau EC50
pEC50: −log10 of the molar value.
pEC50 of 6 or higher: Met. Under 6: Not met.

>  <compound>
CC(C)CN1CCC(C(=O)Nc2cc3cc(-c4cnn(C)c4)cc(F)c3cn2)CC1 [Compound 367]

>  <discrete.label>
Met

$$$$
>  <compound>
CN1CCC(C(=O)Nc2cc3cc(-c4ccn(C)n4)ccc3cn2)CC1 [Compound 264]

>  <discrete.label>
Not met

$$$$
>  <compound>
CC(C)CN1CCC(C(=O)Nc2cc3cc(-c4cnn(C)c4)c(F)cc3cn2)CC1 [Compound 370]

>  <discrete.label>
Met

$$$$
>  <compound>
CN1CC2(CC(C(=O)Nc3cc4cc(-c5cnn(C)c5)ccc4cn3)C2)C1 [Compound 324]

>  <discrete.label>
Met

$$$$
>  <compound>
Cn1cncc1-c1ccc2cnc(NC(=O)C3(F)CCCCC3)cc2c1 [Compound 527]

>  <discrete.label>
Not met

$$$$

Ask: Determine whether this compound has pEC50 no lower than 6: CN1CC2(CC(C(=O)Nc3cc4cc(-c5cncs5)ccc4cn3)C2)C1 [Compound 700]
Reply: Met

Ask: Determine whether this compound has pEC50 no lower than 6: Cn1cc(-c2ccc3cnc(NC(=O)C4CCC(F)(F)CC4)cc3c2)nn1 [Compound 441]
Reply: Met

Ask: Determine whether this compound has pEC50 no lower than 6: Cc1ncc(-c2ccc3cnc(NC(=O)C4(F)CC4)cc3c2)n1C [Compound 376]
Reply: Not met

Ask: Determine whether this compound has pEC50 no lower than 6: Cc1ncc(-c2ccc3cnc(NC(=O)CN4CCCCC4)cc3c2)o1 [Compound 1028]
Reply: Met

Ask: Determine whether this compound has pEC50 no lower than 6: O=C(Nc1cc2cc(-c3cnc4n3CCNC4)ccc2cn1)[C@@H]1CCCNC1 [Compound 988]
Reply: Not met

Ask: Determine whether this compound has pEC50 no lower than 6: CC(C(=O)Nc1cc2cc(-c3cncs3)ccc2cn1)N1CCCC1 (stereo not drawn) [Compound 758]
Reply: Met

Ask: Determine whether this compound has pEC50 no lower than 6: Cn1ncc(-c2ccc3cnc(NC(=O)C4CCC(F)(F)CC4)cc3c2)c1CN1CCCC1 [Compound 299]
Reply: Met

Ask: Determine whether this compound has pEC50 no lower than 6: Cc1ncc(-c2ccc3cnc(NC(=O)CN4CCOCC4)cc3c2)s1 [Compound 994]
Reply: Not met

Ask: Determine whether this compound has pEC50 no lower than 6: Cn1cncc1-c1ccc2cnc(NC(=O)C3CNC3)cc2c1 [Compound 535]
Reply: Not met

====

The following compounds are shown together with reported pEC50 values.
Test system: Wnt pathway (Sp5-Luc reporter, TCF/LEF binding sites) in SW480 colon carcinoma cells
Test: Screening assay for Wnt activity: Sp5-Luc reporter gene assay;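 note: firefly luciferase luminescence read in stably transduced SW480 cells carrying the Sp5 promoter reporter with eight TCF/LEF sites, compounds given in 0.1% DMSO final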
Assay type: cell-based, human
Conditions: Homo sapiens; Sp5-Luc reporter, SW480 cells, 36 to 48 hours
Units for pEC50: none; it is -log10 of a concentration expressed in mol/L.

Solved cases (10 shown):
>  <compound>
[2H]C1([2H])CCC([2H])([2H])N1CC(=O)Nc1cc2cc(-c3cnn(C)c3)ccc2cn1 [Compound 315]

>  <endpoint.name>
pEC50

>  <result.number>
5.80

$$$$
>  <compound>
Cn1cc(-c2ccc3cnc(NC(=O)CN4CCOCC4)cc3c2)cn1 [Compound 338]

>  <endpoint.name>
pEC50

>  <result.number>
5.13

$$$$
>  <compound>
Cc1nnc(-c2ccc3cnc(NC(=O)C4CCN(CC(C)C)CC4)cc3c2)o1 [Compound 1020]

>  <endpoint.name>
pEC50

>  <result.number>
5.94

$$$$
>  <compound>
C[C@H]1COCCN1CC(=O)Nc1cc2cc(-c3cnn(C)c3)ccc2cn1 [Compound 341]

>  <endpoint.name>
pEC50

>  <result.number>
5.39

$$$$
>  <compound>
Cn1cc(-c2ccc3cnc(NC(=O)C4CCN(CCO)CC4)cc3c2)cn1 [Compound 358]

>  <endpoint.name>
pEC50

>  <result.number>
6.38

$$$$
>  <compound>
Cn1cc(-c2cc3cc(NC(=O)C4CCN(CCF)CC4)ncc3cc2F)cn1 [Compound 371]

>  <endpoint.name>
pEC50

>  <result.number>
6.19

$$$$
>  <compound>
CC(F)(F)CN1CCC(C(=O)Nc2cc3cc(-c4cncs4)ccc3cn2)CC1 [Compound 731]

>  <endpoint.name>
pEC50

>  <result.number>
5.52

$$$$
>  <compound>
CN1CCN(C(=O)[C@H]2CC[C@H](C(=O)Nc3cc4cc(-c5cnn(C)c5)ccc4cn3)CC2)CC1 [Compound 1091]

>  <endpoint.name>
pEC50

>  <result.number>
5.53

$$$$
>  <compound>
O=C(Nc1cc2cc(-c3cncs3)ccc2cn1)C1CCN(C2COC2)CC1 [Compound 737]

>  <endpoint.name>
pEC50

>  <result.number>
5.89

$$$$
>  <compound>
CC(C)CN1CCC(C(=O)Nc2cc3cc(-c4cnn(C)c4)c(F)cc3cn2)CC1 [Compound 370]

>  <endpoint.name>
pEC50

>  <result.number>
6.22

$$$$

Ask: Look at this compound and give its reported pEC50. [2H]C([2H])([2H])n1cc(-c2ccc3cnc(NC(=O)[C@H](C)N4CCCC4)cc3c2)cn1 [Compound 971]
Reply: 6.14

Ask: Look at this compound and give its reported pEC50. Cc1ncc(-c2ccc3cnc(NC(=O)C4CC(F)(F)C4)cc3c2)n1C [Compound 268]
Reply: 5.68

Ask: Look at this compound and give its reported pEC50. Cn1cnnc1-c1ccc2cnc(NC(=O)C3CCN(CCC(F)(F)F)CC3)cc2c1 [Compound 278]
Reply: 6.38

Ask: Look at this compound and give its reported pEC50. Cn1cc(-c2cc(F)c3cnc(NC(=O)C4CCNCC4)cc3c2)cn1 [Compound 366]
Reply: 6.48

Ask: Look at this compound and give its reported pEC50. C[C@H]1CN(C)CCN1CC(=O)Nc1cc2cc(-c3cnn(C)c3)ccc2cn1 [Compound 355]
Reply: 5.45

Ask: Look at this compound and give its reported pEC50. Cn1cc(-c2ccc3cnc(NC(=O)C4CCN(C5COC5)CC4)cc3c2)cn1 [Compound 86]
Reply: 5.40

Ask: Look at this compound and give its reported pEC50. CC(=O)N1CCC(C(=O)Nc2cc3cc(-c4cnn(C)c4)ccc3cn2)CC1 [Compound 329]
Reply: 5.93

Ask: Look at this compound and give its reported pEC50. Cn1cc(-c2ccc3cnc(NC(=O)C4CCN(S(=O)(=O)c5ccccc5)CC4)cc3c2)cn1 [Compound 964]
Reply: 5.84

Ask: Look at this compound and give its reported pEC50. Cc1nnc(-c2ccc3cnc(NC(=O)C4CCN(CCC(F)(F)F)CC4)cc3c2)n1C [Compound 279]
Reply: 5.25

Ask: Look at this compound and give its reported pEC50. Cc1ncc(-c2ccc3cnc(NC(=O)CN4CCOCC4)cc3c2)s1 [Compound 994]
Reply: 5.10

Ask: Look at this compound and give its reported pEC50. CO[C@H]1CC[C@@H](C(=O)Nc2cc3cc(-c4nnc(C)s4)ccc3cn2)CC1 [Compound 1001]
Reply: 6.23

Ask: Look at this compound and give its reported pEC50. Cc1ncc(-c2ccc3cnc(NC(=O)CN4CCN(C)CC4)cc3c2)o1 [Compound 1019]
Reply: 5.42

Ask: Look at this compound and give its reported pEC50. CN1CCCC(C(=O)Nc2cc3cc(-c4cnn(C)c4)ccc3cn2)CC1 (stereo not shown) [Compound 1080]
Reply: 5.91
